# measured-target: human P2X3 receptor (Homo sapiens (Human), UniProt P56373)
# Sequence (P56373 whole entry): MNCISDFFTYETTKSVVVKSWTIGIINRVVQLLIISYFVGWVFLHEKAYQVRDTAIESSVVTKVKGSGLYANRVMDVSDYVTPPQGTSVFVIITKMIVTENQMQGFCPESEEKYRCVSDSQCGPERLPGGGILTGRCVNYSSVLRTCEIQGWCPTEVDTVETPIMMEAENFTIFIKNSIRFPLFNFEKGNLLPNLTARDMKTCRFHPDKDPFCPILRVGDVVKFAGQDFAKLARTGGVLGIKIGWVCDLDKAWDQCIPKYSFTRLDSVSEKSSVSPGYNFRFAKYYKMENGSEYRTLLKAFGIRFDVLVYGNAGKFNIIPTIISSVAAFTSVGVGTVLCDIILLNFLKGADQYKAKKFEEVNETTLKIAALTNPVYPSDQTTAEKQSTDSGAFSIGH
# assay-notes: Evaluation of human P2X3 receptor inhibitory activity (Test Example 1)
# assay-conditions: C6BU-1 cell transfected with human P2X3 receptor gene, FLIPR 384
pIC50: −log10 of the molar value.

compound	pIC50
COC(=O)[C@H](C)[C@H](C)n1c(=O)[nH]/c(=N\c2ccc(Oc3ccc(F)cn3)c(F)c2)n(Cc2ccc(Cl)cc2)c1=O [Compound I-001]	7.36
COC(=O)[C@H](C)[C@H](C)n1c(=O)[nH]/c(=N\c2ccc(Oc3ccc(Cl)cn3)cc2)n(Cc2ccc(C)cc2)c1=O [Compound I-120]	8.05
O=C(O)C1(Cn2c(=O)[nH]/c(=N\c3ccc(Oc4ncccc4F)cc3)n(Cc3ccc(Cl)cc3)c2=O)COC1 [Compound I-050]	7.55

* * *

# measured-target: human P2X3 receptor (Homo sapiens (Human), UniProt P56373)
# assay-notes: Evaluation of human P2X3 receptor inhibitory activity (Test Example 1)
# assay-conditions: C6BU-1 cell transfected with human P2X3 receptor gene, FLIPR 384
measure-name: IC50

compound	result
COC(=O)C(C)(C)Cn1c(=O)[nH]/c(=N\c2ccc(Oc3ccc(C)nn3)c(F)c2)n(Cc2ccc(Cl)cc2)c1=O	19 nM
COc1ccc(Oc2ccc(/N=c3\[nH]c(=O)n([C@@H](C)[C@@H](C)C(=O)O)c(=O)n3Cc3ccc(Cl)cc3)cc2)nc1	11 nM
CC(=O)c1ccc(Oc2ccc(/N=c3\[nH]c(=O)n(C[C@H](C)C(=O)O)c(=O)n3Cc3ccc(Cl)cc3)cc2)nc1	5 nM
CCOC(=O)c1cnc(Oc2ccc(/N=c3\[nH]c(=O)n(CC)c(=O)n3Cc3ccc(Cl)cc3)cc2)cc1Cl	52 nM
O=C(O)C1(Cn2c(=O)[nH]/c(=N\c3ccc(Oc4cccc(F)n4)cc3)n(Cc3ccc(Cl)cc3)c2=O)COC1	15 nM
CCc1[nH]c2ccc(/N=c3\[nH]c(=O)n([C@@H](C)[C@@H](C)C(=O)OC)c(=O)n3Cc3ccc(Cl)cc3)cc2c1C	90 nM
C[C@@H](Cn1c(=O)[nH]/c(=N\c2ccc(Oc3ccc(Cl)nn3)cc2)n(Cc2ccc(Cl)cc2)c1=O)C(=O)O	7 nM
COC(=O)CCn1c(=O)[nH]/c(=N\c2ccc(Oc3ccc(Cl)cn3)cc2)n(Cc2ccc(Cl)cc2)c1=O	6 nM
CC(C)(Cn1c(=O)[nH]/c(=N\c2ccc(Oc3cnccn3)c(F)c2)n(Cc2ccc(Cl)cc2)c1=O)C(=O)O	10 nM
CO[C@@H](Cn1c(=O)[nH]/c(=N\c2ccc(Oc3cccc(F)n3)cc2)n(Cc2ccc(Cl)cc2)c1=O)C(=O)O	5 nM
C[C@H](CC(=O)O)n1c(=O)[nH]/c(=N\c2ccc(Oc3cccc(F)n3)cc2)n(Cc2ccc(Cl)cc2)c1=O	8 nM
CCOC(=O)[C@H]1C[C@H](n2c(=O)[nH]/c(=N\c3ccc(Oc4ccc(F)cn4)cc3)n(Cc3ccc(C)cc3)c2=O)C1	7 nM
Cc1ccc(Cn2c(=O)n(C[C@H](C)C(=O)O)c(=O)[nH]/c2=N\c2ccc(Oc3ccc(C(C)O)cn3)cc2)cc1 (stereo partly shown)	7 nM

* * *

# measured-target: human P2X3 receptor (Homo sapiens (Human), UniProt P56373)
# assay-notes: Evaluation of human P2X3 receptor inhibitory activity (Test Example 1)
# assay-conditions: C6BU-1 cell transfected with human P2X3 receptor gene, FLIPR 384
pIC50: −log10 of the molar value.
Consider the following compounds and their measured pIC50 readings.
measure-name: pIC50

molecular-string	measured-target	number
COC(=O)[C@@H](C)Cn1c(=O)[nH]/c(=N\c2ccc(Oc3ccc(F)cn3)cc2)n(Cc2ccc(CF)cc2)c1=O	human P2X3 receptor (Homo sapiens (Human), UniProt P56373)	7.92
COc1cncc(Oc2ccc(/N=c3\[nH]c(=O)n(C[C@H](C)C(=O)O)c(=O)n3Cc3ccc(Cl)cc3)cc2)c1	human P2X3 receptor (Homo sapiens (Human), UniProt P56373)	8.10
Cc1ccc(Cn2c(=O)n([C@@H](C)[C@@H](C)C(=O)O)c(=O)[nH]/c2=N\c2ccc(Oc3ccc(F)cn3)cc2)cc1	human P2X3 receptor (Homo sapiens (Human), UniProt P56373)	8.15
COC(=O)[C@@H](C)Cn1c(=O)[nH]/c(=N\c2ccc(Oc3cc(F)ccn3)cc2)n(Cc2ccc(Cl)cc2)c1=O	human P2X3 receptor (Homo sapiens (Human), UniProt P56373)	8.30
CC1(Cn2c(=O)[nH]/c(=N\c3ccc(Oc4ccccn4)cc3)n(Cc3ccc(Cl)cc3)c2=O)COC(C)(C)OC1	human P2X3 receptor (Homo sapiens (Human), UniProt P56373)	8.40
CCOC(=O)C[C@H](O)Cn1c(=O)[nH]/c(=N\c2ccc(Oc3ccc(F)cn3)cc2)n(Cc2ccc(Cl)cc2)c1=O	human P2X3 receptor (Homo sapiens (Human), UniProt P56373)	8.10

* * *

Consider the following compounds and their measured IC50 readings.
# measured-target: human P2X3 receptor (Homo sapiens (Human))
# assay-notes: Evaluation of human P2X3 receptor inhibitory activity (Test Example 1)
# assay-conditions: C6BU-1 cell transfected with human P2X3 receptor gene, FLIPR 384
# Text: […]

molecular-string	IC50
Cc1ccnc(Oc2ccc(/N=c3\[nH]c(=O)n([C@@H](C)[C@@H](C)C(=O)O)c(=O)n3Cc3ccc(Cl)cc3)cc2)c1	9 nM
COC(=O)C(C)(C)Cn1c(=O)[nH]/c(=N\c2ccc(N3CCOCC3)c(F)c2)n(Cc2ccc(Cl)cc2)c1=O	217 nM
Cc1ccc(Cn2c(=O)n(C[C@H](C)C(=O)O)c(=O)[nH]/c2=N\c2ccc(Oc3ccccn3)c(C)c2)cc1	12 nM
CCc1ccc(Oc2ccc(/N=c3\[nH]c(=O)n(C[C@H](C)C(=O)O)c(=O)n3Cc3ccc(C)cc3)cc2)nc1	4 nM
C[C@@H](Cn1c(=O)[nH]/c(=N\c2ccc(O[C@H](C)C(F)(F)F)c(O[C@H](C)C(F)(F)F)c2)n(Cc2ccc(Cl)cc2)c1=O)C(=O)O	29 nM
COC(=O)[C@@H](C)Cn1c(=O)[nH]/c(=N\c2ccc(Oc3ccnc(Cl)c3)cc2)n(Cc2ccc(Cl)cc2)c1=O	7 nM
COc1cc(Oc2ccc(/N=c3\[nH]c(=O)n(C[C@H](C)C(=O)O)c(=O)n3Cc3ccc(Cl)cc3)cc2)cc(F)n1	4 nM
C[C@@H](Cn1c(=O)[nH]/c(=N\c2ccc(Oc3ccc(F)cn3)cc2)n(CC2CCC3(CC2)CC3)c1=O)C(=O)O	9 nM
CC(C)(Cn1c(=O)[nH]/c(=N\c2ccc(Oc3ccc(OC(F)F)cn3)cc2)n(Cc2ccc(Cl)cc2)c1=O)C(=O)O	7 nM
Cc1ccc(Cn2c(=O)n(C[C@H](C)C(=O)O)c(=O)[nH]/c2=N\c2ccc(Oc3cccc(CF)n3)cc2)cc1	8 nM
C[C@@H](Cn1c(=O)[nH]/c(=N\c2ccc(Oc3ccccn3)c(F)c2)n(C[C@H]2CC[C@H](C)CC2)c1=O)C(=O)O	8 nM
COC(=O)[C@@H](C)Cn1c(=O)[nH]/c(=N\c2ccc(Oc3cccc(Cl)n3)cc2)n(Cc2ccc(C)cc2)c1=O	6 nM
CCOC(=O)Cn1c(=O)[nH]/c(=N\c2ccc(Oc3ccccn3)cc2)n(Cc2ccc(F)cc2)c1=O	13 nM
CC1(C)OCC(Cn2c(=O)[nH]/c(=N\c3ccc(Oc4ccccn4)cc3)n(Cc3ccc(Cl)cc3)c2=O)CO1	4 nM
COCc1cccc(Oc2ccc(/N=c3\[nH]c(=O)n(C[C@H](C)C(=O)O)c(=O)n3Cc3ccc(C)cc3)cc2)n1	29 nM
COC(=O)C(C)(C)Cn1c(=O)[nH]/c(=N\c2ccc(Oc3cncc(Cl)c3)cc2)n(Cc2ccc(Cl)cc2)c1=O	13 nM
C[C@@H](Cn1c(=O)[nH]/c(=N\c2ccc(Oc3cc(F)ccn3)cc2)n(Cc2ccc(Cl)cc2)c1=O)C(=O)O	5 nM
Cc1cccnc1Oc1ccc(/N=c2\[nH]c(=O)n(CC(C)(C)C(=O)O)c(=O)n2Cc2ccc(Cl)cc2)cc1	19 nM
COC(=O)[C@@H](C)Cn1c(=O)[nH]/c(=N\c2ccc(Oc3nc(C)ns3)cc2)n(Cc2ccc(Cl)cc2)c1=O	5 nM
COC(=O)[C@H](Cn1c(=O)[nH]/c(=N\c2ccc(Oc3ncccc3F)cc2)n(Cc2ccc(Cl)cc2)c1=O)OC	6 nM
CC(C)(Cn1c(=O)[nH]/c(=N\c2ccc(Oc3ccc(Cl)cn3)cc2)n(Cc2ccc(Cl)cc2)c1=O)C(=O)O	5 nM
Cc1ccc(Cn2c(=O)n([C@@H](C)[C@@H](C)C(=O)O)c(=O)[nH]/c2=N\c2ccc(Oc3ccc(OC(F)F)cn3)cc2)cc1	7 nM
O=C(O)C1(Cn2c(=O)[nH]/c(=N\c3ccc(Oc4ccccn4)cc3)n(Cc3ccc(Cl)cc3)c2=O)CC1	8 nM
COC(=O)[C@H](Cn1c(=O)[nH]/c(=N\c2ccc(Oc3cccc(F)n3)cc2)n(Cc2ccc(Cl)cc2)c1=O)OC	4 nM
Cc1nc(Oc2ccc(/N=c3\[nH]c(=O)n(C[C@H](C)C(=O)O)c(=O)n3Cc3ccc(Cl)cc3)cc2)no1	39 nM
COC(=O)[C@@H](C)Cn1c(=O)[nH]/c(=N\c2ccc(Oc3ccc(OC(F)F)cn3)cc2)n(Cc2ccc(C)cc2)c1=O	8 nM
